Target: T1, soluble KDR Ig4-7 domain (human, UniProt P35968 328-764)
T1 construct: domain: Ig4-7 domain; also called b-KDRIg4-7-myc-his; Ig4-7 domain of KDR; not shown: myc-his tag of the pSecTag construct
T1 sequence (P35968 328-764): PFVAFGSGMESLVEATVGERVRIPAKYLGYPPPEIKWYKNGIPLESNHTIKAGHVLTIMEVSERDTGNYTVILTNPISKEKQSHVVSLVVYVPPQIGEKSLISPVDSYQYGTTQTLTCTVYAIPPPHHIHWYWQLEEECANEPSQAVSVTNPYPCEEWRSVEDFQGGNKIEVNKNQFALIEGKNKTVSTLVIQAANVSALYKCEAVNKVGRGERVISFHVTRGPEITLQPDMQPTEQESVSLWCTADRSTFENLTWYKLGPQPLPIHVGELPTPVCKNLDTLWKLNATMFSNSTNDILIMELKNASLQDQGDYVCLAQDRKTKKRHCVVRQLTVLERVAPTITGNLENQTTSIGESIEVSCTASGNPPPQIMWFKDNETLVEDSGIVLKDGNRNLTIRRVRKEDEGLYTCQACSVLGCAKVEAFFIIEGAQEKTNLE
Test: ELISA, KDR Ig4-7 coat (1:1 diln.), antibody 0.1 ug/mL
Procedure: The cross-reactivity of purified antibodies was tested against KDR mouse ortholog KDR mouse ortholog (mouse VEGFR2, or Flk-1) and human VEGFR1 (Flt-1). The ability of the antibodies to bind soluble KDR Ig4-7 domain and to the entire KDR extracellular domain (ECD) was also measured. Cross-reactivity experiments were carried out and measured using an ELISA based assay as described in Example 6. […] Antibody controls included IgG1 and IgG4 (Sigma-Aldrich, Cat. #15154 and #14639, respectively).
Readings of ELISA reading for the listed binders

Binder: 21H6 (antibody, V domains shown, Fully human monoclonal antibody from a XenoMouse hybridoma, purified) VH: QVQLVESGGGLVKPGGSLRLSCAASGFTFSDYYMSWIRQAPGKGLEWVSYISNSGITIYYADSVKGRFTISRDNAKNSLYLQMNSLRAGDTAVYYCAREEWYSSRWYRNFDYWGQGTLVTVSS VL: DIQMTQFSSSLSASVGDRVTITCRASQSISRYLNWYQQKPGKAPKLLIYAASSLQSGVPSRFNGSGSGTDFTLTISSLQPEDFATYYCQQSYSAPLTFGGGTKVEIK
ELISA reading: 0.074
--
Binder: 31E11 (antibody, V domains shown, Fully human monoclonal antibody from a XenoMouse hybridoma (IgG2 or IgG4 strain), purified) VH: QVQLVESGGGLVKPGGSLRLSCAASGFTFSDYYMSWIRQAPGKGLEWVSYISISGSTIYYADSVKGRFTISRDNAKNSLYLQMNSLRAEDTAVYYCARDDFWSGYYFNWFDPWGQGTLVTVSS VL: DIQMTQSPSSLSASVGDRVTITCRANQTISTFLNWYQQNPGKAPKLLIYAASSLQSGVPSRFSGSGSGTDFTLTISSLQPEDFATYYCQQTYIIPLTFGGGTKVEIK
ELISA reading: 0.073
--
Binder: 22B8 (antibody, V domains shown, Fully human monoclonal antibody from a XenoMouse hybridoma (IgG2 or IgG4 strain), purified) VH: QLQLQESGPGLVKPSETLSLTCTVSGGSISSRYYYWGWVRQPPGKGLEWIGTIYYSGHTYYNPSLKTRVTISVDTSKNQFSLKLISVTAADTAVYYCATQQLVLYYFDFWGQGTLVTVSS VL: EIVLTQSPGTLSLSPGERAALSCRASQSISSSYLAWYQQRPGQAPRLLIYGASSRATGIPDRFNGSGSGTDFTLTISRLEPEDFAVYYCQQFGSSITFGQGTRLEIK
ELISA reading: 0.078
--
Binder: 32F4 (antibody, V domains shown, Fully human monoclonal antibody from a XenoMouse hybridoma (IgG2 or IgG4 strain), purified) VH: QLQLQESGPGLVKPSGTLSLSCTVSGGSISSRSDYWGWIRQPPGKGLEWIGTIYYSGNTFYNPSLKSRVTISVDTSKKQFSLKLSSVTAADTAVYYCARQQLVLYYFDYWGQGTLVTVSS VL: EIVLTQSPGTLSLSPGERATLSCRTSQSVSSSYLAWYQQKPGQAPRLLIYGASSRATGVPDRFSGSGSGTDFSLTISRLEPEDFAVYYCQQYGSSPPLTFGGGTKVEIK
ELISA reading: 0.079
